Taken from patent US20030207886A1.

# measurement.description: Maxima of UV-A and UV-B absorption of quinoxaline derivatives in 2-propanol
# Type: physicochemical
# experimental.context: 1 mg of substance per 100 ml of solvent, wavelength of UV-A maximum
Each entry below lists one item and its recorded UV-A (400 320 nm) λ [nm] value.
Supply the numeric figure in nm, leaving out any unit text.

| mol.smiles | metric | value.measured |
| --- | --- | --- |
| O=C(/C=C/C=C/c1ccccc1)c1cnc2ccccc2n1 | UV-A (400 320 nm) λ [nm] | 365.0 |
| Nc1nc2ccccc2nc1Cl | UV-A (400 320 nm) λ [nm] | 353.4 |
| FC(F)(F)c1cc(CNc2cnc3ccccc3n2)cc(C(F)(F)F)c1 | UV-A (400 320 nm) λ [nm] | 359.0 |
| O=C(OC/C=C/c1ccccc1)c1ccccc1Nc1cnc2ccccc2n1 | UV-A (400 320 nm) λ [nm] | 386.3 |
| O=c1[nH]c2ccccc2nc1/C=C/c1ccccc1 | UV-A (400 320 nm) λ [nm] | 388.5 |
| O=C(O)c1cc(Nc2cnc3ccccc3n2)cc(C(=O)O)c1 | UV-A (400 320 nm) λ [nm] | 372.8 |

Problem: Quickly give me recorded UV-A (400 320 nm) λ [nm] for O=C(c1ccccc1)c1ccccc1Nc1cnc2ccccc2n1
Result: 395.4

Problem: Quickly give me recorded UV-A (400 320 nm) λ [nm] for COC(=O)CCc1ccc2nc3nc4ccccc4nc3n2c1
Result: 349.5

Problem: Quickly give me recorded UV-A (400 320 nm) λ [nm] for Brc1ccc2nc3nc4ccccc4nc3n2c1
Result: 354

Problem: Quickly give me recorded UV-A (400 320 nm) λ [nm] for Brc1cnc2ccccc2n1
Result: 321.0

====

# measurement.description: Maxima of UV-A and UV-B absorption of quinoxaline derivatives in 2-propanol
# Format: physicochemical
# experimental.context: 1 mg of substance per 100 ml of solvent, absorbance at UV-A maximum
metric: UV-A (400 320 nm) Max. abs.
Write no unit; give the number alone.

| mol.smiles | UV-A (400 320 nm) Max. abs. |
| --- | --- |
| Cc1ccc(/C=C/c2nc3ccccc3[nH]c2=O)cc1 | 0.4660 |

Problem: Quickly give me recorded UV-A (400 320 nm) Max. abs. for Cc1ccc(S(=O)(=O)c2cnc3ccccc3n2)cc1
Result: 0.1595

Problem: Quickly give me recorded UV-A (400 320 nm) Max. abs. for CCOC(=O)c1ccc(Nc2cnc3ccccc3n2)cc1
Result: 0.5414

Problem: Quickly give me recorded UV-A (400 320 nm) Max. abs. for Brc1ccc2nc3nc4ccccc4nc3n2c1
Result: 0.4113

Problem: Quickly give me recorded UV-A (400 320 nm) Max. abs. for c1ccc2nc(-c3cnc4ccccc4n3)cnc2c1
Result: 0.7687

====

Each entry below lists one item and its recorded UV-B (280 320 nm) λ [nm] value.
# measurement.description: Maxima of UV-A and UV-B absorption of quinoxaline derivatives in 2-propanol
# Format: physicochemical
# experimental.context: 1 mg of substance per 100 ml of solvent, wavelength of UV-B maximum
Supply the numeric figure in nm, leaving out any unit text.

Worked examples, 2 compounds total:
| mol.smiles | units.symbol | value.measured |
| --- | --- | --- |
| CC(C)OC(=O)c1ccc(Nc2cnc3ccccc3n2)cc1 | nm | 306.7 |
| Clc1ccc(Nc2cnc3ccccc3n2)c(Cl)c1 | nm | 280.7 |

Problem: Quickly give me recorded UV-B (280 320 nm) λ [nm] for CC(=O)c1nc2ccccc2nc1C(C)=O
Result: 310.0

Problem: Quickly give me recorded UV-B (280 320 nm) λ [nm] for O=C(O)c1cc(Nc2cnc3ccccc3n2)cc(C(=O)O)c1
Result: 286.9

Problem: Quickly give me recorded UV-B (280 320 nm) λ [nm] for O=C(O)c1ccc(CNc2nc3ccccc3nc2Cl)cc1
Result: 290.0

Problem: Quickly give me recorded UV-B (280 320 nm) λ [nm] for Clc1nc2ccccc2nc1C#Cc1ccccc1
Result: 286.0

Problem: Quickly give me recorded UV-B (280 320 nm) λ [nm] for CC(=O)c1ccc(Nc2cnc3ccccc3n2)cc1
Result: 314.7
